Data origin, for the record: ChEMBL document CHEMBL4346693

- System: MCF7
- ASSAY: cells
- MEASUREMENT CONDITIONS: Homo sapiens, MCF7, 72 h
- Description: Antiproliferative activity against human MCF7 cells incubated for 72 hrs by MTT assay
pIC50: −log10 of the molar value.

COMPOUND: COc1ccc(N(CC(F)(F)F)S(=O)(=O)[C@H]2C[C@H]3O[C@@H]2C(c2ccc(OCCN4CCCC4)cc2)=C3c2ccc(O)cc2)cc1 (relative stereo)
pIC50: 5.21
//
COMPOUND: CCN(c1ccccc1)S(=O)(=O)[C@H]1C[C@H]2O[C@@H]1C(c1ccc(OCCCCCCCC(=O)O)cc1)=C2c1ccc(O)cc1 (relative stereo)
pIC50: 4.56
//
COMPOUND: COc1ccc(N(CC(F)(F)F)S(=O)(=O)[C@H]2C[C@H]3O[C@@H]2C(c2ccc(OCCCCCCC(=O)O)cc2)=C3c2ccc(O)cc2)cc1 (relative stereo)
pIC50: 4.80
//
COMPOUND: O=S(=O)([C@H]1C[C@H]2O[C@@H]1C(c1ccc(OCC(O)CO)cc1)=C2c1ccc(O)cc1)N(CC(F)(F)F)c1ccc(Cl)cc1 (relative stereo)
pIC50: 4.77
//
COMPOUND: CCN(c1ccccc1)S(=O)(=O)[C@H]1C[C@H]2O[C@@H]1C(c1ccc(OCCN3CCCCC3)cc1)=C2c1ccc(O)cc1 (relative stereo)
pIC50: 4.89
//
COMPOUND: COc1ccc(N(CC(F)(F)F)S(=O)(=O)[C@H]2C[C@H]3O[C@@H]2C(c2ccc(OCCCCCCCC(=O)O)cc2)=C3c2ccc(O)cc2)cc1 (relative stereo)
pIC50: 4.39
